Measured EC50, listed per entry for reference.
# tested_system: soluble guanylate cyclase (sGC) (Homo sapiens, UniProt Q02108+Q02153)
# Construct: endogenously expressing soluble guanylate cyclase (sGC); endogenous in cells; host or cells: HEK293
# test_method_notes: sGC-HEK-cGMP assay (run with SNP incubation)
# Assay type: cell-based
# condition_info: in the presence of 10 μM SNP; top of concentration-response curve not fitted to 100%; Table 3D; read-out: HEK assay EC50-unconstrained
measured_property: EC50

INSERT INTO assay_data (molecule, measured_property, endpoint_result) VALUES
  ('Oc1nc(-c2cc(-c3cocn3)n(Cc3ccccc3F)n2)ncc1F [Compound 48]', 'EC50', '1000 to 5000 nM'),
  ('Oc1nc(-c2cc(-c3nccs3)n(Cc3ccccc3F)n2)ncc1F [Compound 44]', 'EC50', '10 to 500 nM'),
  ('Nc1nc(-c2cc(-c3ccon3)n(Cc3ccccc3F)n2)ncc1NC(=O)C1(c2ccccc2F)CC1 [Compound 9]', 'EC50', '10 to 500 nM'),
  ('COc1ccc(C2(C(=O)Nc3cnc(-c4cc(-c5ccon5)n(Cc5ccccc5F)n4)nc3N)CC2)cc1 [Compound 12]', 'EC50', '10 to 500 nM'),
  ('N#CC1(C(=O)Nc2cnc(-c3cc(-c4ccon4)n(Cc4cccc(F)c4F)n3)nc2N)CC1 [Compound 36]', 'EC50', '10 to 500 nM'),
  ('CN(C1CC1)S(=O)(=O)c1cnc(-c2cc(-c3ccon3)n(Cc3ccccc3F)n2)[nH]c1=O [Compound 14]', 'EC50', '10 to 500 nM');

* * *

# tested_system: soluble guanylate cyclase (sGC) (Homo sapiens, UniProt Q02108+Q02153)
# Construct: endogenously expressing soluble guanylate cyclase (sGC); endogenous in cells; host or cells: HEK293
# Sequence (Q02153 1-619): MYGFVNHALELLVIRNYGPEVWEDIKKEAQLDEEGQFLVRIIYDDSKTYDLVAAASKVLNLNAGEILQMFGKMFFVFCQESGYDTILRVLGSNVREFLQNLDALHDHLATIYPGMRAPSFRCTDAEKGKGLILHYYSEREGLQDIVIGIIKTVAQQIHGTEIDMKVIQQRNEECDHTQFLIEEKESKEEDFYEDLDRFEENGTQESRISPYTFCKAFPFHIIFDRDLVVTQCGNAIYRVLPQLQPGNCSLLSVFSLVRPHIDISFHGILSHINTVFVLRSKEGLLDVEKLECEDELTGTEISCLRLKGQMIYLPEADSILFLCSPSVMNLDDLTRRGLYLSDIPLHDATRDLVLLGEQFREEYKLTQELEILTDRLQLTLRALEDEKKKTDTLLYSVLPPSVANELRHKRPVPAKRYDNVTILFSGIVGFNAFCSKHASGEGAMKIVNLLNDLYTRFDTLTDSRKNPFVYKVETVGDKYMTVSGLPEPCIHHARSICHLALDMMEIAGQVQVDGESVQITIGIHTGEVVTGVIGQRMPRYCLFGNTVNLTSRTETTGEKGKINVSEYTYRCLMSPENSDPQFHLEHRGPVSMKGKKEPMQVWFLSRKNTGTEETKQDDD
# Sequence (Q02108 1-690): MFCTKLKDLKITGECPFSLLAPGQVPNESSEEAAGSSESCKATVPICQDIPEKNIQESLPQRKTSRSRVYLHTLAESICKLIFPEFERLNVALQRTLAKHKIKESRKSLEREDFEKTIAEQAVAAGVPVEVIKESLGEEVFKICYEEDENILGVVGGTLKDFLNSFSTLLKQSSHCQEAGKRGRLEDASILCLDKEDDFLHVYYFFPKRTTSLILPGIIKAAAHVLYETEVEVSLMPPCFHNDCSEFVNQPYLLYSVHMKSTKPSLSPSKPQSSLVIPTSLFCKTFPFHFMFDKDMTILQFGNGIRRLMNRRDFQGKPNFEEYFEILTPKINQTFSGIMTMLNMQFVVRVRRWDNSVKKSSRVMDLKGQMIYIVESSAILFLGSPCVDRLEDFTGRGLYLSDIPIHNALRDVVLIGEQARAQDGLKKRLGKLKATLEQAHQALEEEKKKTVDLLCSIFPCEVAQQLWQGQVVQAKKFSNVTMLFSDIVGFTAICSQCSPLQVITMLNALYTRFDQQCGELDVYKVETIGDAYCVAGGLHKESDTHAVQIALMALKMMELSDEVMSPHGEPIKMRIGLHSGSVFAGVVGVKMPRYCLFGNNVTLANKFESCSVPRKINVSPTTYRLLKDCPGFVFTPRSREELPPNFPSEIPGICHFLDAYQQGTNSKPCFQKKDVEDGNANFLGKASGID
# test_method_notes: sGC-HEK-cGMP assay (run with SNP incubation)
# Type: cell-based
# condition_info: in the presence of 10 μM SNP; top of concentration-response curve not fitted to 100%; Table 3D; read-out: HEK assay EC50-unconstrained
Measured EC50, listed per entry for reference.
measured_property: EC50

INSERT INTO assay_data (molecule, endpoint_result) VALUES
  ('CC1(C(=O)Nc2cnc(-c3cc(-c4ncco4)n(Cc4ccccc4F)n3)nc2N)CC1(F)F (centres unmarked)', '1000 to 5000 nM'),
  ('Nc1ccnc(-c2cc(-c3ccon3)n(Cc3c(F)ccc(F)c3F)n2)n1', '1000 to 5000 nM'),
  ('CC1(C(=O)Nc2cnc(-c3cc(-c4ccon4)n(Cc4cccc(F)c4F)n3)nc2N)CC1', '10 to 500 nM'),
  ('CC1(C(=O)Oc2cnc(-c3cc(-c4ccon4)n(Cc4ccccc4F)n3)nc2N)CC1', '10000 to 50000 nM'),
  ('Nc1nc(-c2cc(-c3ccon3)n(Cc3ccccc3F)n2)ncc1NC(=O)C1(F)CC1', '10 to 500 nM'),
  ('Oc1nc(-c2cc(-c3ncco3)n(Cc3ccccc3F)n2)ncc1Sc1ccccc1', '1000 to 5000 nM'),
  ('CSc1cnc(-c2cc(-c3ccon3)n(Cc3ccccc3F)n2)nc1O', '5000 to 10000 nM'),
  ('O=c1[nH]c(-c2cc(-c3ccon3)n(Cc3cccnc3F)n2)ncc1F', '10 to 500 nM'),
  ('CC(C)(CC(F)(F)F)C(=O)Nc1cnc(-c2cc(-c3ccon3)n(Cc3ccccc3F)n2)nc1N', '1000 to 5000 nM'),
  ('Fc1ccccc1Cn1nc(-c2ncc(F)c(Cl)n2)cc1-c1ccon1', '1000 to 5000 nM'),
  ('Nc1nc(-c2cc(-c3ccon3)n(Cc3ccccc3F)n2)ncc1NC(=O)C1(c2ccc(F)cc2)CC1', '10 to 500 nM'),
  ('Fc1ccccc1Cn1nc(-c2ncccn2)c(F)c1-c1ccon1', '1000 to 5000 nM'),
  ('Nc1nc(-c2cc(-c3ccon3)n(Cc3ccccc3F)n2)ncc1NC(=O)C1(c2cccc(F)c2)CC1', '10 to 500 nM'),
  ('O=c1[nH]c(-c2cc(-c3ccon3)n(Cc3ccccc3F)n2)ncc1S(=O)(=O)N1CCOCC1', '500 to 1000 nM'),
  ('Oc1nc(-c2cc(-c3ccon3)n(Cc3ccccc3F)n2)ncc1-c1ccsc1', '5000 to 10000 nM'),
  ('O=c1[nH]c(-c2cc(-c3ccon3)n(Cc3c(F)ccc(F)c3F)n2)ncc1F', '500 to 1000 nM'),
  ('Nc1nc(-c2cc(-c3ccon3)n(Cc3cccc(F)c3F)n2)ncc1NC(=O)C1(C(F)(F)F)CC1', '10 to 500 nM');

* * *

# tested_system: soluble guanylate cyclase (sGC) (Homo sapiens, UniProt Q02108+Q02153)
# Construct: endogenously expressing soluble guanylate cyclase (sGC); endogenous in cells; host or cells: HEK293
# test_method_notes: sGC-HEK-cGMP assay (run with SNP incubation)
# Type: cell-based
# condition_info: concentration that would elicit 10% of the Emax in the presence of 10 μM SNP; Table 3E
measured_property: HEK MEC-10

INSERT INTO results (chem_smiles, measured_property, endpoint_result) VALUES
  ('O=c1[nH]c(-c2cc(-c3ccccn3)n(Cc3ccccc3F)n2)ncc1F', 'HEK MEC-10', 'D (1 to <10 μM)'),
  ('Oc1ccnc(-c2cc(-c3ccon3)n(Cc3cccc(F)c3F)n2)n1', 'HEK MEC-10', 'B (0.01 to <0.1 μM)'),
  ('N#Cc1cc(-c2ncc(F)c(=O)[nH]2)nn1Cc1ccccc1F', 'HEK MEC-10', 'C (0.1 to <1 μM)'),
  ('Nc1ccnc(-c2cc(-c3ccon3)n(Cc3ccc(F)cc3F)n2)n1', 'HEK MEC-10', 'C (0.1 to <1 μM)'),
  ('O=c1[nH]c(-c2cc(-c3ccon3)n(Cc3cccc(Cl)c3F)n2)ncc1F', 'HEK MEC-10', 'C (0.1 to <1 μM)'),
  ('O=c1[nH]c(-c2cc(-c3ncon3)n(Cc3cc(F)ccc3F)n2)ncc1F', 'HEK MEC-10', 'C (0.1 to <1 μM)'),
  ('O=c1[nH]c(-c2cc(-c3ccon3)n(Cc3cc(F)ccc3F)n2)ncc1F', 'HEK MEC-10', 'B (0.01 to <0.1 μM)'),
  ('O=c1[nH]c(-c2cc(-c3ccon3)n(Cc3ccccc3F)n2)nc(CF)c1F', 'HEK MEC-10', 'D (1 to <10 μM)'),
  ('Nc1ccnc(-c2cc(-c3ccon3)n(Cc3cc(F)ccc3F)n2)n1', 'HEK MEC-10', 'C (0.1 to <1 μM)');
